# ASSAY NOTES: NCI Yeast Anticancer Drug Screen. Data for the sgs1 mgt1 strain (AID 161)
# CONDITIONS: S. cerevisiae sgs1 mgt1 strain, at 50.0 µM (retest, dose inferred, filed as 5.0)
Compounds without any hit were thinned out: in the full panel of roughly 79,000, 15% have a hit. Activity calls are given as the source filed them. No stated cut-off is given here; in the data, active means growth inhibition above about 70%; inactive means the rest.
Give your call using only these classes: y = active, n = inactive

Challenge: Dear all, I need the recorded test outcome for `C/C(=N\NC(=S)NCCCNC(=S)N/N=C(\C)c1ccccn1)c1ccccn1` , thank you.
Response given: y

Challenge: Dear all, I need the recorded test outcome for `O=C(Nc1c(Cl)cc([N+](=O)[O-])cc1Cl)/C(=N\Nc1cccc(Cl)c1)c1c(O)c2ccccc2oc1=O` , thank you.
Response given: n

Challenge: Dear all, I need the recorded test outcome for C[C@@H]1CN(CC2COc3ccccc3O2)[C@@H](C)CN1CC1COc2ccccc2O1 (some centres not stated) , thank you.
Response given: y

Challenge: Dear all, I need the recorded test outcome for `O=C(c1ccccc1)N1CCN(c2cccc(Cl)c2)CC1` , thank you.
Response given: n

Challenge: Dear all, I need the recorded test outcome for `Clc1nc2ccccc2nc1N1CCCCCC1` , thank you.
Response given: y

Challenge: Dear all, I need the recorded test outcome for `C=C(Br)CN(CC)CC` , thank you.
Response given: n

Challenge: Dear all, I need the recorded test outcome for `CC(=O)Nc1ccc2c(c1)C(=Nc1ccc(F)cc1)c1ccccc1-2` , thank you.
Response given: n

Challenge: Dear all, I need the recorded test outcome for `Clc1nn2nnnc2c2ccccc12` , thank you.
Response given: n

Challenge: Dear all, I need the recorded test outcome for `O=C1c2scc(-c3ccccc3)c2-n2cccc21` , thank you.
Response given: y

Challenge: Dear all, I need the recorded test outcome for `CCCCCCCCC1(OCCCS(=O)(=O)O)COc2ccccc2OCCOCCOc2ccccc2OC1` , thank you.
Response given: y

Challenge: Dear all, I need the recorded test outcome for `Cc1ccc(SC2=C(N(C)C)C(=O)c3ccccc3C2=O)cc1` , thank you.
Response given: y

Challenge: Dear all, I need the recorded test outcome for `NC(=S)N/N=C1\CCCCc2ccccc21` , thank you.
Response given: y
